# measurement target: Recombinant JAK3 (Homo sapiens, UniProt P52333)
# Construct: purchased Carna Biosciences
# Sequence (P52333 whole entry): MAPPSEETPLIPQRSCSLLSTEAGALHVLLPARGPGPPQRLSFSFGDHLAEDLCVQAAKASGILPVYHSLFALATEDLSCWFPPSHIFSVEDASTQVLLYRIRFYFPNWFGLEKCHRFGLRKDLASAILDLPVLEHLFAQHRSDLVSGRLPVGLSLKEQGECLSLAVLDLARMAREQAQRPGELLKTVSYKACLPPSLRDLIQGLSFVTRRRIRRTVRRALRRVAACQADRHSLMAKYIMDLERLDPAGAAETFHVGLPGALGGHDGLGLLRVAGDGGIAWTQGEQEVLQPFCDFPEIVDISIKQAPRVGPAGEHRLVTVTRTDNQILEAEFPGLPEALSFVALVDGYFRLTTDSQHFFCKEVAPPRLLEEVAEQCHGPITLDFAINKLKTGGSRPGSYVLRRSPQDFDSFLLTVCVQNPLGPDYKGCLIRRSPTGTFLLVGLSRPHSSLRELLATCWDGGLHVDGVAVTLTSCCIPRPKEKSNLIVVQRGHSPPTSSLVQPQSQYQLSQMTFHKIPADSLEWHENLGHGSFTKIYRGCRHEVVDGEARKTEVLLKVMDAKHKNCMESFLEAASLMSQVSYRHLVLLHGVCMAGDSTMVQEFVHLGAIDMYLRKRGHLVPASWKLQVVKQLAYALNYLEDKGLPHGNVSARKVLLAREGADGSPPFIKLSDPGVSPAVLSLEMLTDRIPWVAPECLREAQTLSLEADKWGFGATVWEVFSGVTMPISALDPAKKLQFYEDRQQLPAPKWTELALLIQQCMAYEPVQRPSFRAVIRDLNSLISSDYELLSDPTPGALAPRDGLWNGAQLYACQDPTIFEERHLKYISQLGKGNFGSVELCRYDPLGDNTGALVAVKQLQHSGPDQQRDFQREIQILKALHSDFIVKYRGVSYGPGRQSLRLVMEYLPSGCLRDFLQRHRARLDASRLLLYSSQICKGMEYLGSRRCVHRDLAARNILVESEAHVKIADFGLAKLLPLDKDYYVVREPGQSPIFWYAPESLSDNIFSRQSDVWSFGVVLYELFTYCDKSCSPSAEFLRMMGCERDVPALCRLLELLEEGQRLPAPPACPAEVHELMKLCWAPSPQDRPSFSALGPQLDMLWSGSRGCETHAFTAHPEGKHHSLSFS
# experimental details: JAK biochemical assay (LANCE Ultra TR-FRET), JAK3
# stated conditions: recombinant JAK3, TR-FRET; read-out: Biochemical Assay (μM) JAK3
Listed here: items and their measured IC50.

1. N#CC(NC(=O)n1cc(-c2ccnc3[nH]c(=O)[nH]c23)cn1)c1ccccc1 (stereo not shown) [Example 1063] = > 0.5 µM

[Q] Fill blank: measured IC50 of the molecule O=C(NCC1CCCC1)N1CCN(c2ccnc3[nH]c(=O)[nH]c23)CC1 [Example 1017] is ____.
[A] > 10 µM

[Q] Give its IC50 value. Item: CNCCC(c1ccc(-n2cc(-c3ccnc4[nH]cnc34)cn2)nc1)C(F)(F)F (stereo not shown) [Example 1198]
[A] < 0.1 µM

[Q] Which IC50 reading was recorded for the molecule O[C@](c1ccc(-n2cc(-c3ccnc4[nH]cnc34)cn2)nc1)(C1CCN(C2COC2)C1)C(F)(F)F (stereo partly shown) [Example 1243] ?
[A] < 0.1 µM

[Q] Report IC50 for O=C(CN1CCN(c2ccnc3[nH]c(=O)[nH]c23)CC1)NCC(F)(F)F [Example 1025] please.
[A] > 10 µM

[Q] Which IC50 value belongs to O=C(NCC(F)(F)F)n1cc(-c2ccnc3[nH]cnc23)cn1 [Example 1064] ?
[A] < 0.5 µM

[Q] Tell me the measured IC50 of CC(NC(=O)n1cc(-c2ccnc3[nH]c(=O)[nH]c23)cn1)C(=O)N1CC(C#N)C1 (stereo not shown) [Example 1058] , please.
[A] > 10 µM

[Q] Quick check: IC50 of CNC(=O)CC(c1ccc(-n2cc(-c3ccnc4[nH]cnc34)cn2)nc1)C(F)(F)F (stereo not shown) [Example 1145] ?
[A] < 0.1 µM

[Q] Any idea what IC50 was measured for CC(C)N1CCC([C@](O)(c2ccc(-n3cc(-c4ccnc5[nH]cnc45)cn3)nc2)C(F)(F)F)C1 (stereo partly shown) [Example 1226] ?
[A] > 0.03 µM

---

# measurement target: Recombinant JAK2 (Homo sapiens, UniProt O60674)
# Construct: purchased Carna Biosciences
# Sequence (O60674 whole entry): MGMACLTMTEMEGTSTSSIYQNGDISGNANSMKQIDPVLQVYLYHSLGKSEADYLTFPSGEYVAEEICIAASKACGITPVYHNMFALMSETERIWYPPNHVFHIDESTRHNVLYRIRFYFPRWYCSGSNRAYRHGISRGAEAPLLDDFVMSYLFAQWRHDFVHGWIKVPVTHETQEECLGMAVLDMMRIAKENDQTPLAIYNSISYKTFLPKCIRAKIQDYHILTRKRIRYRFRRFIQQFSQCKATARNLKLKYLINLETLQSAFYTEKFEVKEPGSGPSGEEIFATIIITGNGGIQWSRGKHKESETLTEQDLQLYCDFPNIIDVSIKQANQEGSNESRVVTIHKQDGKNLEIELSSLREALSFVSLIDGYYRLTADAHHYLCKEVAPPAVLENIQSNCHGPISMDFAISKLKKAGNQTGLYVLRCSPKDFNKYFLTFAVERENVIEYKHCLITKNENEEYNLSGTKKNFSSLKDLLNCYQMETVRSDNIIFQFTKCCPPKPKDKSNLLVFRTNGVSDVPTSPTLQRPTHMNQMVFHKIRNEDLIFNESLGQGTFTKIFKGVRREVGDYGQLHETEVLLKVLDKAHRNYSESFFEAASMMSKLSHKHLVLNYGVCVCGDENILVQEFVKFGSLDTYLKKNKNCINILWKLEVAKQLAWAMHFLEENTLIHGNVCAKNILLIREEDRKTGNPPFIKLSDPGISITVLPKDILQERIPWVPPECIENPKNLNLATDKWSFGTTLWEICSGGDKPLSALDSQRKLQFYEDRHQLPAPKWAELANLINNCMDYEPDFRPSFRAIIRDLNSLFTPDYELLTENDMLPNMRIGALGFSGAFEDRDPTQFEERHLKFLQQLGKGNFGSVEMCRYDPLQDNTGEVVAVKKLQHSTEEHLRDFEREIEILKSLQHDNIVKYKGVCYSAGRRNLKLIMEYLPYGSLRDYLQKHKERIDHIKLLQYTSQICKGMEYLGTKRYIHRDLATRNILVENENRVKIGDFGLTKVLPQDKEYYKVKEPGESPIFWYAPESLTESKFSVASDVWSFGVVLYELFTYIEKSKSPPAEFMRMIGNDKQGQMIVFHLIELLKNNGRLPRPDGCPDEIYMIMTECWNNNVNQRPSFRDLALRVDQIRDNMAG
# experimental details: JAK biochemical assay (LANCE Ultra TR-FRET), JAK2
# stated conditions: recombinant JAK2, TR-FRET; read-out: Biochemical Assay (μM) JAK2
readout: IC50

Recorded results for 2 compounds are shown here.
1. N#CCOC(c1ccc(-n2cc(-c3ccnc4[nH]cnc34)cn2)nc1)C(F)(F)F (centres unmarked) [Example 1157] = < 0.1 µM
2. CS(=O)(=O)Cc1ccc(-n2cc(-c3ccnc4[nH]cnc34)cn2)nc1 [Example 1080] = < 0.5 µM

[Q] Query IC50 on Recombinant JAK2 (Homo sapiens, UniProt O60674) for CC(C)NCC[C@H](c1ccc(-n2cc(-c3ccnc4[nH]cnc34)cn2)nc1)C(F)(F)F [Example 1208]
[A] 0.01 µM

[Q] Find the measured IC50: item FC(F)(F)C(c1ccc(-n2cc(-c3ccnc4[nH]cnc34)cn2)nc1)N1CCOCC1 (centres unmarked) [Example 1137] , target or system Recombinant JAK2 (Homo sapiens, UniProt O60674).
[A] > 0.5 µM

[Q] Find the measured IC50: item CC(C)N(CCC(c1ccc(-n2cc(-c3ccnc4[nH]cnc34)cn2)nc1)C(F)(F)F)C(C)C (centres unmarked) [Example 1211] , target or system Recombinant JAK2 (Homo sapiens, UniProt O60674).
[A] > 0.1 µM

[Q] Hi! What's the reported IC50 for N#CC1(c2ccc(-n3cc(-c4ccnc5[nH]cnc45)cn3)nc2)CC1 [Example 1109] on Recombinant JAK2 (Homo sapiens, UniProt O60674)?
[A] < 0.5 µM

[Q] What measured IC50 is associated with N#CC1CCN(C(=O)n2cc(-c3ccnc4[nH]cnc34)cn2)C1 (centres unmarked) [Example 1177] on Recombinant JAK2 (Homo sapiens, UniProt O60674)?
[A] < 0.5 µM

[Q] What reported IC50 corresponds to O=C(Nc1ccnc(F)c1)N1CCN(c2ccnc3[nH]c(=O)[nH]c23)CC1 [Example 1015] on Recombinant JAK2 (Homo sapiens, UniProt O60674)?
[A] > 1 µM

[Q] Write down the reported IC50 of FC(F)(F)C(CCN1CCOCC1)c1ccc(-n2cc(-c3ccnc4[nH]cnc34)cn2)nc1 (centres unmarked) [Example 1201] , test system: Recombinant JAK2 (Homo sapiens, UniProt O60674).
[A] > 0.5 µM

---

# measurement target: Recombinant JAK3 (Homo sapiens)
# Construct: purchased Carna Biosciences
# experimental details: JAK biochemical assay (LANCE Ultra TR-FRET), JAK3
# stated conditions: recombinant JAK3, TR-FRET; read-out: Biochemical Assay (μM) JAK3
# Procedure: Recombinant JAK1, JAK2, JAK3 and TYK2 (Carna Biosciences) were used to develop biochemical assays in 50 mM HEPES pH 7.5, 1 mM EGTA, 10 mM MgCl2, 2 mM DTT and 0.01% Tween-20. […] The intensity of the light emission is proportional to the level of ULight substrate phosphorylation. Compounds which interfere with JAK enzyme activity show a lesser substrate phosphorylation and values are projected in terms of % inhibition in comparison to vehicle control.
Listed compounds paired with reported IC50

1. N#CC1CN(Cc2ccc(-n3cc(-c4ccnc5[nH]cnc45)cn3)nc2)C1 [Example 1087] = > 1 µM
2. O=C(NCC(F)(F)F)C(c1ccc(-n2cc(-c3ccnc4[nH]cnc34)cn2)nc1)C1CC1 (centres unmarked) [Example 1167] = 0.173 µM
3. CS(=O)(=O)CCC(c1ccc(-n2cc(-c3ccnc4[nH]c(=O)[nH]c34)cn2)nc1)C(F)(F)F (centres unmarked) [Example 1189] = > 1 µM
4. Cc1cc(S(C)(=O)=O)ccc1NC(=O)N1CCN(c2ccnc3[nH]c(=O)[nH]c23)CC1 [Example 1024] = > 1 µM
5. CC1(C)CN(C(=O)Nc2ccc(-c3ccnc4[nH]c(=O)[nH]c34)cc2)C1 [Example 1007] = > 1 µM

[Q] Reported IC50, compound N#CCC(NC(=O)n1cc(-c2ccnc3[nH]cnc23)cn1)C1CCOCC1 (centres unmarked) [Example 1065] : ____
[A] > 0.5 µM

[Q] Item CS(=O)(=O)CC(c1ccc(-n2cc(-c3ccnc4[nH]cnc34)cn2)nc1)C(F)(F)F (centres unmarked) [Example 1138] has what recorded IC50?
[A] > 0.1 µM

[Q] What value of IC50 has been reported for the following compound? O=C(CC(c1ccc(-n2cc(-c3ccnc4[nH]cnc34)cn2)nc1)C(F)(F)F)N1CCOCC1 (centres unmarked) [Example 1249]
[A] > 0.5 µM

---

# measurement target: Recombinant TYK2 (Homo sapiens, UniProt P29597)
# Construct: purchased Carna Biosciences
# Sequence (P29597 whole entry): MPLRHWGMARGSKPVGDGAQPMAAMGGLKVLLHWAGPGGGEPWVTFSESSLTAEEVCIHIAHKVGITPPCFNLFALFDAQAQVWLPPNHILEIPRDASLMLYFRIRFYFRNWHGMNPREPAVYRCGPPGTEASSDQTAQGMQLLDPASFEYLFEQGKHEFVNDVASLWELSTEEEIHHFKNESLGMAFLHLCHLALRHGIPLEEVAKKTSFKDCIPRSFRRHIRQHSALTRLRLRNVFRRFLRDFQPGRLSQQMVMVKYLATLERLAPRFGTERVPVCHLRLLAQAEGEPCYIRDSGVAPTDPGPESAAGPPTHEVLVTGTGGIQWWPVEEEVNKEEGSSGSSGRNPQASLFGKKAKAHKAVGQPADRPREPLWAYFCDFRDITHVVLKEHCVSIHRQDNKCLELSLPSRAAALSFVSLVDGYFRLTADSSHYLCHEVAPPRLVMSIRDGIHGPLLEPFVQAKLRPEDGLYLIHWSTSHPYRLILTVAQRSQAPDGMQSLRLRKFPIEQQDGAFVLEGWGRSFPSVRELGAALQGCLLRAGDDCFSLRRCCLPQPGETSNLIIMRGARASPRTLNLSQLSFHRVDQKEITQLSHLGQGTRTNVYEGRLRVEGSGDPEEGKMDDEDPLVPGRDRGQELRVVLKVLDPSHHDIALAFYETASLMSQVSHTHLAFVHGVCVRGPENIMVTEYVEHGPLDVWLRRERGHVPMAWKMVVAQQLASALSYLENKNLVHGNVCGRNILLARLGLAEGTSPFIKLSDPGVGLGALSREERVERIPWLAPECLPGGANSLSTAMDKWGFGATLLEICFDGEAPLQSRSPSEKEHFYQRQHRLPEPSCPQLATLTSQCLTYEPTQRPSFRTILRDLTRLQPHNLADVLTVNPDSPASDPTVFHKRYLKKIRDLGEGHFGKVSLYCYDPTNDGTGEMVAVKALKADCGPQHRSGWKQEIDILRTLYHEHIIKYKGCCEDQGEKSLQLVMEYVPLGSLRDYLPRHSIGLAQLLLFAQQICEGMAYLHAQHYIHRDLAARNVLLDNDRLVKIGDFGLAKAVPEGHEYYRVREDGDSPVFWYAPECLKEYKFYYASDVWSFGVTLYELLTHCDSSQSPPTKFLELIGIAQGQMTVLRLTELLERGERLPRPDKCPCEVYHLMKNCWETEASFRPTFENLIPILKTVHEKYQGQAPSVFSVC
# experimental details: JAK biochemical assay (LANCE Ultra TR-FRET), TYK2
# stated conditions: recombinant TYK2, TR-FRET; read-out: Biochemical Assay (μM) TYK2
readout: IC50

Please review the entries below; each comes with its answer.
1) O=C(CCC(F)(F)F)n1cc(-c2ccnc3[nH]c(=O)[nH]c23)cn1 = > 1 µM
2) O=C(Nc1ccc(-c2ccnc3[nH]c(=O)[nH]c23)cc1)N1CCOCC1 = > 10 µM
3) CC(NC(=O)Nc1ccc(-c2ccnc3[nH]c(=O)[nH]c23)cc1)C(F)(F)F (centres unmarked) = > 0.5 µM
4) O=C(NCC(F)(F)F)Nc1cnc(-c2ccnc3[nH]c(=O)[nH]c23)cn1 = > 1 µM
5) N#CCc1coc(-n2cc(-c3ccnc4[nH]cnc34)cn2)n1 = > 1 µM
6) N#CCNC(=O)n1cc(-c2ccnc3[nH]c(=O)[nH]c23)cn1 [Example 1027] = 0.096 µM
7) CC(NC(=O)N1CCN(c2ccnc3[nH]c(=O)[nH]c23)CC1)C(F)(F)F (centres unmarked) = > 1 µM

[Q] Quick check: IC50 of CN1CCC([C@](O)(c2ccc(-n3cc(-c4ccnc5[nH]cnc45)cn3)nc2)C(F)(F)F)C1 (some centres unmarked) ?
[A] 0.67 µM

---

# measurement target: Recombinant JAK2 (Homo sapiens)
# Construct: purchased Carna Biosciences
# experimental details: JAK biochemical assay (LANCE Ultra TR-FRET), JAK2
# stated conditions: recombinant JAK2, TR-FRET; read-out: Biochemical Assay (μM) JAK2
readout: IC50

Example entries begin here.
1) O=C(NCC(F)(F)F)n1ccc(-c2ccnc3[nH]c(=O)[nH]c23)c1 = > 1 µM
2) N#CCC(=O)NCCC(c1ccc(-n2cc(-c3ccnc4[nH]cnc34)cn2)nc1)C(F)(F)F (centres unmarked) = < 0.1 µM
3) COCCC(c1ccc(-n2cc(-c3ccnc4[nH]cnc34)cn2)nc1)C(F)(F)F (centres unmarked) = > 0.5 µM
4) CC(C)N1CCC([C@@](O)(c2ccc(-n3cc(-c4ccnc5[nH]cnc45)cn3)nc2)C(F)(F)F)C1 (some centres unmarked) = 0.064 µM

Then this molecule:
[Q] I would be grateful if you could share the reported IC50 for CC(CN1CC(C#N)C1)NC(=O)n1cc(-c2ccnc3[nH]cnc23)cn1 (centres unmarked) .
[A] > 1 µM
